target.of.assay: human ether-à-go-go-related gene (hERG) potassium channel (human, UniProt Q12809)
Sequence (Q12809 whole entry, looked up): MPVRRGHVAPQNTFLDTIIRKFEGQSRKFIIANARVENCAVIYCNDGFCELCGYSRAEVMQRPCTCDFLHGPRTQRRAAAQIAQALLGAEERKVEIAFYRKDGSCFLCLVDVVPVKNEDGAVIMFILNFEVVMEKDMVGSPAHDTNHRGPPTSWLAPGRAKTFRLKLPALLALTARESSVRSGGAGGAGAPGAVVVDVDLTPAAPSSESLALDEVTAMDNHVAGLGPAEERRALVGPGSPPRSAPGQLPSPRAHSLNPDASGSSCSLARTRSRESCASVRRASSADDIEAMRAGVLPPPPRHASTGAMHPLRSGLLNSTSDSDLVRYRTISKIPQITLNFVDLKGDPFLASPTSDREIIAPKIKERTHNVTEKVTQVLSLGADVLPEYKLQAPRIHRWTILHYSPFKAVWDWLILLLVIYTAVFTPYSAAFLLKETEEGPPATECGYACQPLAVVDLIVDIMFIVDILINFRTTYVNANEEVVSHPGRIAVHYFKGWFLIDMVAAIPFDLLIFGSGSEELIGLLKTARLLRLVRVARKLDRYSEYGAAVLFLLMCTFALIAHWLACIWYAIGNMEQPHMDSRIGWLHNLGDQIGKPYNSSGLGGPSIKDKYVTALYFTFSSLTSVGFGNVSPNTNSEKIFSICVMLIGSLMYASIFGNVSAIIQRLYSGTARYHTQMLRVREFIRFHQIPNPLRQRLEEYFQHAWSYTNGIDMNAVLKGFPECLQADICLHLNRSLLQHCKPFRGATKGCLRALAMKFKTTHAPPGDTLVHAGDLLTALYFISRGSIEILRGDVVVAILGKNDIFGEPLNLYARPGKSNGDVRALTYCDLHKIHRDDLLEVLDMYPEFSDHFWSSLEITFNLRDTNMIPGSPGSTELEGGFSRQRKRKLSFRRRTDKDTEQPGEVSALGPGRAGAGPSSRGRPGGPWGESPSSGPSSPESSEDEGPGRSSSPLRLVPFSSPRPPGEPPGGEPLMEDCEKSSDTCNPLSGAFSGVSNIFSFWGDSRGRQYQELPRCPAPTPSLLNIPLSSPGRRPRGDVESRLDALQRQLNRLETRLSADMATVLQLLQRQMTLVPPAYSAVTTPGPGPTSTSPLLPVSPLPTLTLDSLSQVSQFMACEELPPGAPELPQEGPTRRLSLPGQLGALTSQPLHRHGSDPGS
assay.name: primary screen, population patch clamp on CHO cells stably expressing hERG; higher = less effect of the substance
In all, about 310,000 compounds went through this assay and about 14,000 (4.5%) showed an effect of 50% or more. The effect is printed as a negative number. The full list was thinned out, with strong results kept by preference.
Decide using hERG current change (%, negative = inhibition) at 10uM: a value greater than or equal to -20% is MET, a smaller one is NOT MET.

| molecule | class |
| --- | --- |
| CCc1nn(CC(=O)NCCCN(CC)c2cccc(C)c2)c(=O)c2cc3occc3n12 | MET |

Threshold query (hERG current change (%, negative = inhibition) at 10uM >= -20%) on O=C(NCCCN1CCCCC1)C1CCCN(c2ncnc3c2nc2n3CCCCC2)C1 (stereo not drawn) MET

What about this molecule? O=C(NCCCN1CCN(c2ccc(F)cc2)CC1)C1CCCN(c2ncnc3c2nc2n3CCCCC2)C1 (stereo not drawn) NOT MET

Moving on to CC1CCN(CCCNC(=O)C2CCCN(c3ncnc4c3nc3n4CCCCC3)C2)CC1 (stereo not drawn) MET

Can you handle CN1CCN(C(=O)C2CCN(c3ncnc4c3nc3n4CCCCC3)CC2)CC1 next? MET

Could you do the same for O=C(C1CCN(c2ncnc3c2nc2n3CCCCC2)CC1)N1CCN(c2ccccc2F)CC1 , please? NOT MET

Please give the result for COc1ccc(OC)c(NC(=O)Cn2c(CCC(=O)O)ccc2-c2ccc(C)cc2)c1 too. MET

Please do the same for O=C(C1CCCN(c2ncnc3c2nc2n3CCCCC2)C1)N1CCN(c2ccc(F)cc2)CC1 (stereo not drawn) as well. NOT MET

What do we get for CCN1CCN(C(=O)C2CCCN(c3ncnc4c3nc3n4CCCCC3)C2)CC1 (stereo not drawn) ? MET

* * *

target.of.assay: human ether-à-go-go-related gene (hERG) potassium channel (human, UniProt Q12809);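 also: peak tail current of the secondary pulse compared with the same well before compound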
assay.name: primary screen, population patch clamp on CHO cells stably expressing hERG; higher = less effect of the substance
About 14,000 (4.5%) of roughly 310,000 compounds showed an effect of 50% or more. Effects have a minus sign here. For the sample, strong results were picked, then their nearest neighbours and some compounds at random.
observed.property: hERG current change (%, negative = inhibition) at 10uM (%)
Supply the numeric figure in %, leaving out any unit text.

| compound | target.of.assay | quantitative.readout |
| --- | --- | --- |
| Cc1ccc(-c2nc(CSCC(=O)NCCN3CCN(Cc4ccccc4)CC3)c(C)o2)cc1 | human ether-à-go-go-related gene (hERG) potassium channel (human, UniProt Q12809) | -65.2 |

Please give the measured hERG current change (%, negative = inhibition) at 10uM for this compound: C=CC#CC1(O)CC(C)[N+](C)(C)CC1C.[I-] (stereo not shown) 17.4

Another compound: Cc1ccc(-c2nc(CSCC(=O)NCCCN3CCOCC3)c(C)o2)cc1 14.1

* * *

target.of.assay: human ether-à-go-go-related gene (hERG) potassium channel (human, UniProt Q12809);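 also: peak tail current of the secondary pulse compared with the same well before compound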
assay.name: primary screen, population patch clamp on CHO cells stably expressing hERG; higher = less effect of the substance
Procedure: Briefly, Chinese hamster ovary (CHO) cells stably expressing the hERG channel were dislodged from tissue culture flasks and dispensed into PPC plates. […] During the recording, background leak currents were estimated by a 100 ms step to -80 mV from an initial holding potential of -70 mV and subtracted from the subsequent current measurement. The campaign was conducted in two phases using slight differences in recording protocol. […]
Hit rate of the full screen: of about 310,000 compounds, about 14,000 (4.5%) showed an effect of 50% or more. The effect is printed as a negative number. What follows is part of a selection rich in strong results, with near analogues and random picks from the rest.
observed.property: hERG current change (%, negative = inhibition) at 10uM (%)
Please state the figure in %; there is no need to write the unit.

| compound.string | quantitative.readout |
| --- | --- |
| O=C(Nc1ccc(Oc2cccnc2)cc1)C1CCN(Cc2cccc(Cl)c2)CC1 | -52.8 |
| N/C(=N\OC(=O)c1ccc2ccccc2c1)c1cccc([N+](=O)[O-])c1 | 5.05 |
| Cn1c(=O)oc2cc(S(=O)(=O)NCCC(=O)NCCc3ccccc3)ccc21 | 1.29 |
| CC(C)c1ccc(N=C2N=C(N)c3ccccc32)cc1 | -59.2 |

Alright, here's another compound for you.
Given NC1=NC(=Nc2ccc(Cl)cc2)c2ccccc21 , state its recorded hERG current change (%, negative = inhibition) at 10uM. -3.81

* * *

target.of.assay: human ether-à-go-go-related gene (hERG) potassium channel (human, UniProt Q12809);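 also: peak tail current of the secondary pulse compared with the same well before compound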
assay.name: primary screen, population patch clamp on CHO cells stably expressing hERG; higher = less effect of the substance
The campaign covered roughly 310,000 compounds. About 14,000 (4.5%) showed an effect of 50% or more. Effects have a minus sign here. This is one part of a sample in which strong results are shown more often than they occur.
Assign 1 whenever hERG current change (%, negative = inhibition) at 10uM does not fall below -10%; assign 0 whenever it does.

| molecule | class |
| --- | --- |
| Cc1ccc(Nc2nc(N)c3ccccc3n2)cc1Cl.Cl | 1 |
| COc1ccc(NC(=O)CN(C)CC(=O)Nc2ccc(Cl)cc2[N+](=O)[O-])cc1 | 0 |
| CC(CNC(=O)c1cc(COc2ccc3ncccc3c2)on1)c1ccccc1 (stereo not drawn) | 1 |
| CCN1CCN(S(=O)(=O)c2ccc(Oc3ccccc3OC)cc2)CC1 | 0 |
| O=C(COc1ccccc1)Nc1nonc1NC(=O)COc1ccccc1 | 0 |

Does the reported hERG current change (%, negative = inhibition) at 10uM for Cc1ccc(Nc2nc(N)nc(CN3CCN(Cc4ccccc4)CC3)n2)cc1Cl fall at or above the -10% mark? 0

Please give the result for CCN1C(=O)NC(=O)/C(=C\c2ccc(N3CCOCC3)cc2OC)C1=O too. 1

Cool, now CCCC1=NN2C(=N)/C(=C\c3cc(C)n(-c4cc(C)cc(C)c4)c3C)C(=O)N=C2S1 0

Can you handle Cc1nn(-c2ccc(N3CCCCC3)nn2)c(C)c1CCC(=O)Nc1cccc(F)c1 next? 0

* * *

Reported values of hERG current change (%, negative = inhibition) at 10uM for individual entries
target.of.assay: human ether-à-go-go-related gene (hERG) potassium channel (human, UniProt Q12809);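 also: peak tail current of the secondary pulse compared with the same well before compound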
assay.name: primary screen, population patch clamp on CHO cells stably expressing hERG; higher = less effect of the substance
About 14,000 (4.5%) of roughly 310,000 compounds showed an effect of 50% or more. Effects have a minus sign here. Shown is part of a subset that was picked to be rich in strong results.
Write the number in % without appending the unit.

Solved entries:
| molecule | quantitative.readout |
| --- | --- |
| CCn1c2ccccc2c2cc(N=C3SC(CC(=O)Nc4ccccc4OC)C(=O)N3CCOC)ccc21 (centres unmarked) | -3.75 |
| N#Cc1ccc(Oc2ccc(C(F)(F)F)cc2NC(=O)c2ccc(F)cc2)cc1 | -70.2 |
| CCO[C@H]1OC(C(=O)Nc2ccccc2)=C[C@@H](C2CC2)[C@@H]1CCCO | 1.16 |
| Clc1ccccc1Nc1nc2ccccc2o1 | 10.5 |
| COc1ccc(CN2C=C3C(=O)C(C)(OC(=O)CCc4ccccc4)C(=O)C=C3C=C2c2ccc(C#N)cc2)cc1 (centres unmarked) | -31.7 |
| COc1ccc(-c2nc3c(Br)c(N)c(Br)cc3o2)cc1 | 7.14 |
| CN1CCN(S(=O)(=O)c2ccc3c(c2)C(C)(C)C(=O)N3C)CC1 | 14.3 |
| Cl.Cn1cccc1CNCCc1ccccc1 | -1.74 |

Report hERG current change (%, negative = inhibition) at 10uM for Cc1ccc(S(=O)(=O)N2CCN(C(=O)CN3C(=O)NC4(CCCCC4)C3=O)CC2)c(C)c1 please. 1.52

Now give it for c1c(CC2CCCC2)nnn1C[C@H]1CC[C@@H]([C@@H]2CC[C@H](Cn3cc(CC4CCCC4)nn3)O2)O1 too. -57.6

Then what about the molecule CN(C)CCOc1ccccc1-c1ccccc1.O=C(O)C(=O)O ? -4.52

Now this one: COc1ccc(O)c(CN2CCCC(C(=O)c3ccccc3SC)C2)c1 (centres unmarked) -30.9

Entry CCOc1cccc2sc(N(CCN(C)C)C(=O)c3ccc(Br)s3)nc12.Cl please -30.3

Entry to check: COc1ccc2nc(N(CCN(C)C)C(=O)c3ccc4c(c3)OCCO4)sc2c1.Cl -35.3

Same read-out for C#Cc1ccc(CN2CCC(C(=O)Nc3ccc(Oc4ccccc4)nc3)CC2)cc1 ? -72.3

Again, but for CN1C(=O)C(C2c3ccccc3C(=O)N2Cc2ccccc2)C(=O)N(C)C1=O (centres unmarked) 3.38

For COc1cc2ccccc2cc1C(=O)N(CCN(C)C)c1nc2c(F)cccc2s1.Cl then? -38.4
